- experimental target: T1, cMetECDHis (human, UniProt P08581 25-932, limits assumed, biotinylated in the cross-block ELISA of Example 17)
- T1 construct: Expressed in HEK-293F cells; also called soluble cMetECDHis; biotinylated cMetECDHis
- experimental details: cross-block ELISA; competitor 064
Listing of entries alongside the reported residual binding, % of no competitor.

binder: IgG1-1016-069 (antibody, V domains shown, also called clone 069; TH1016-069) VH: QVQLVQSGAEVKKPGASVKVSCETSGYTFTSYGISWVRQAPGHGLEWMGWISAYNGYTNYAQKLQGRVTMTTDTSTSTAYMELRSLRSDDTAVYYCARDLRGTNYFDYWGQGTLVTVSS VL: DIQMTQSPSSVSASVGDRVTITCRASQGISNWLAWFQHKPGKAPKLLIYAASSLLSGVPSRFSGSGSGTDFTLTISSLQPEDFATYYCQQANSFPITFGQGTRLEIK
residual binding, % of no competitor [%]: 2.3
//
binder: anti-c-Met HuMab 005 (IgG1) (antibody, V domains shown, also called TH1016-005; PC1016-005) VH: QVQLVQSGAEVKKPGSSVKVSCKASGGTFSSYGFGWVRQAPGQGLEWMGRISPILGIANYAQMFQGRVTITADKSTSTAYMELSSLRSEDTAVYYCARDVGYDWPDTFDIWGQGTMVIVSS VL: DIQMTQSPSSLSASVGDRVTITCRASQGISSWLAWYQQKPEKAPKSLIYAASSLQSGVPSRFSGGGSGTDFTLTISSLQPEDFATYYCQQYNSFPPTFGQGTKVEIK
residual binding, % of no competitor [%]: 118
//
binder: anti-c-Met HuMab 008 (IgG1) (antibody, V domains shown, also called TH1016-008; PC1016-008) VH: EVQLVQSGAEVKKPGESLKISCKGSGYSFTSYWIGWVRQMPGKGLEWMGIIYPGDSETRYSPSFQGQVTISADKSISTAYLQWSSLKASDTAMYYCARQEITGEFDYWGQGTLVTVSS VL: AIQLTQSPSSLSASVGDRVTITCRASQGISSALAWYQQKPGKAPKLLIYDASSLESGVPSRFSGSGSGTDFTLTISSLQPEDFATYYCQQFNSYPRTFGQGTKVEIK
residual binding, % of no competitor [%]: 107
//
binder: anti-c-Met HuMab 006 (IgG1) (antibody, V domains shown, also called TH1016-006; PC1016-006) VH: QVQLVQSGAEVKKPGSSVKVSCKASGGTFSSFGIGWVRQAPGQGLEWMGRIFPILGTANYAQMFQGRVTITADKSTSTAYMELTSLRSEDTAVYYCARDVGYDSADAFDIWGQGTMVTVSS VL: DIQMTQSPSSLSASVGDRVTITCRASQGISSWLAWYQQKPEKAPKSLIYAASSLQSGVPSRFSGSGSGTDFTLTISSLQPEDFATYYCQQYNSYPPTFGQGTKVEIK
residual binding, % of no competitor [%]: 122
//
binder: anti-c-Met HuMab 045 (IgG1) (antibody, V domains shown, also called TH1016-045; PC1016-045) VH: EVQLLESGGGLVQPGGSLRLSCAASGFTFSSYAMSWVRQAPGKGLEWVSVISGSGGITYYADSVKGRFTISRDNSKNTLYLQMNSLRAEDTAVYYCARDRGWGSDYWGQGTLVTVSS VL: EIVLTQSPATLSLSPGERATLSCRASQSVSSYLAWYQQKPGQAPRLLIYDASNRATGIPARFSGSGSGTDFTLTISSLEPEDFAVYYCQQRSNWPFTFGPGTKVDIK
residual binding, % of no competitor [%]: 104

Values from patent US20150329642A1
